Measured % Activation, listed per entry for reference.
- Subject Of Test: ΔF508-CFTR (Homo sapiens, UniProt P13569, DEL508-508)
- Construct: host or cells: CFBE41o-, doxycycline-inducible
- Sequence (P13569 with tags, fused parts or gaps DEL508-508): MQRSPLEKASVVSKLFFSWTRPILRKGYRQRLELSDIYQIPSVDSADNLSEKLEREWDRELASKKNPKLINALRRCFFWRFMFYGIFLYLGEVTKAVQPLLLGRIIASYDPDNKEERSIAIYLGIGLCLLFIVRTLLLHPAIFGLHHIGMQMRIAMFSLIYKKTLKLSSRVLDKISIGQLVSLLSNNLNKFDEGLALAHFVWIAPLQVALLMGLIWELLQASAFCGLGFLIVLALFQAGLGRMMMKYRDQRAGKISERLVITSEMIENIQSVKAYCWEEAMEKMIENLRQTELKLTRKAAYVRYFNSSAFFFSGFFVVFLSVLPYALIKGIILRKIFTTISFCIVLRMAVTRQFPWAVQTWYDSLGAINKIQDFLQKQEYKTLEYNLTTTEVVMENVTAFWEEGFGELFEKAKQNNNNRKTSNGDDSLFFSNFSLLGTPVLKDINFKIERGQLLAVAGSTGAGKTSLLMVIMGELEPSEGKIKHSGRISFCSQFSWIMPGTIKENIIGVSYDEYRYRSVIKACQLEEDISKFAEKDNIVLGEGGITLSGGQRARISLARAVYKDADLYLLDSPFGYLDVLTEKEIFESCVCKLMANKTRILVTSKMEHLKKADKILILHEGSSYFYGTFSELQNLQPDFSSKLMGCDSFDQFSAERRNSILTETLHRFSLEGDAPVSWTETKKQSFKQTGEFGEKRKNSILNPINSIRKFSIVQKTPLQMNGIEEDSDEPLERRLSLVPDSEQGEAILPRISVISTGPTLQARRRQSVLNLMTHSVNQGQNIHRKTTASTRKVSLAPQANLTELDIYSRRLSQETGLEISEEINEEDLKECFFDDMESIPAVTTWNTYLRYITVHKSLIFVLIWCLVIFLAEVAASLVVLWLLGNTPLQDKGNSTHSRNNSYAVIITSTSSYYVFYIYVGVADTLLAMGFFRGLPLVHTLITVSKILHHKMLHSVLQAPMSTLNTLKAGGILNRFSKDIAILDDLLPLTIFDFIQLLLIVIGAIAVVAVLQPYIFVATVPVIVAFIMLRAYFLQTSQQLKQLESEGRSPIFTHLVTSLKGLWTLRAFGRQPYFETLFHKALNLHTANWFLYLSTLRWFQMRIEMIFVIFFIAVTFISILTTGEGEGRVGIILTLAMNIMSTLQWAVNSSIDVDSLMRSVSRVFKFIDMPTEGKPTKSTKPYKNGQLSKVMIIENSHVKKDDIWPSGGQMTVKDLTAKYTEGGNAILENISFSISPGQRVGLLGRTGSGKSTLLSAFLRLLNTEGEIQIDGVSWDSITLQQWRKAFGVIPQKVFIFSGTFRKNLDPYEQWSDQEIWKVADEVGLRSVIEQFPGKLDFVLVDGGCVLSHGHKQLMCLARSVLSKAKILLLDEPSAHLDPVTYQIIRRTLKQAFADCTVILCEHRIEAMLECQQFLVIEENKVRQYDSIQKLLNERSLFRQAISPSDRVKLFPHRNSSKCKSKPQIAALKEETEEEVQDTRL
- Procedure Details: CFTR cell surface levels using HRP-tagged ΔF508-CFTR expressing CFBE cells, intrinsic corrector capacity
- Type: cell-based
- Set-up: concentration or dose not given beside the values
- Experimental Context: HRP-tagged ΔF508-CFTR expressing CFBE41o- cells; compound alone (intrinsic corrector capacity); 20 hours at 33° C.
Recorded Endpoint: % Activation (%)

• COc1cc(-n2nc(C3CCC3)c3c(N4CCC(N5CCOCC5)CC4)cc(C(=O)NS(C)(=O)=O)nc32)ccn1 = 194.5
• CN(C)S(=O)(=O)NC(=O)c1cc(N2CCC(N3CCOCC3)CC2)c2c(C3CCC3)nn(-c3cccc(OC(F)F)c3)c2n1 = 289.03
• CS(=O)(=O)NC(=O)c1cc(CN2CCC(N3CCOCC3)CC2)c2c(C3CCC3)nn(-c3ccc(F)cc3)c2n1 = 104.3
• CCCOC1CCN(c2cc(C(=O)NS(C)(=O)=O)nc3c2c(C2CCC2)nn3-c2ccccc2)CC1 = 242.35
• CCS(=O)(=O)NC(=O)c1cc(-c2ccc(N3CCOCC3)cc2)c2c(C)nn(-c3ccc(F)cc3F)c2n1 = 262.33
• COC1CN(C2CCN(c3cc(C(=O)NS(=O)(=O)N(C)C)nc4c3c(C3CCC3)nn4-c3ccc(F)cc3)CC2)C1 = 235.8
• CC(C)(C)S(=O)(=O)NC(=O)c1cc(N2CCC(CN3CCCC3)CC2)c2c(C3CCC3)nn(-c3ccccc3)c2n1 = 131.6
• CN(C)S(=O)(=O)NC(=O)c1cc(OCC2CCN(C3CCOCC3)CC2)c2c(C3CCC3)nn(-c3ccc(F)cc3)c2n1 = 102.8

###

- Subject Of Test: ΔF508-CFTR (Homo sapiens, UniProt P13569, DEL508-508)
- Construct: host or cells: CFBE41o-, doxycycline-inducible
- Procedure Details: CFTR cell surface levels using HRP-tagged ΔF508-CFTR expressing CFBE cells, in the presence of a co-corrector
- Format: cell-based
- Experimental Context: HRP-tagged ΔF508-CFTR CFBE cells, in the presence of 3 μM co-corrector
Measured % Activation, listed per entry for reference.
Recorded Endpoint: % Activation (%)

* O=C(NS(=O)(=O)C1COC1)c1cc(N2CCC(N3CCOCC3)CC2)c2c(C3CCC3)nn(-c3ccc(F)cc3)c2n1 | 308.95
* COCCN(C)c1ccc(-c2cc(C(=O)NS(C)(=O)=O)nc3c2c(C(C)C)nn3-c2cccc(N3CCCC3)c2)cc1 | 571.3
* Cc1nn(-c2ccccc2)c2nc(C(=O)NS(C)(=O)=O)cc(-c3ccc(N4CC(N(C)C)C4)cc3)c12 | 253.3
* C#CCCS(=O)(=O)NC(=O)c1cc(-c2ccc(N=[N+]=[N-])cc2)c2c(C(C)C)nn(-c3cccc(N(C)C)c3)c2n1 | 415.8
* CS(=O)(=O)NC(=O)c1cc(-c2ccc(N3CCC(C#N)CC3)nc2)c2c(C3CCC3)nn(-c3ccnc(N4CCOCC4)c3)c2n1 | 379.9
* Cc1nn(C2CCCCC2)c2nc(C(=O)NS(=O)(=O)C3CC3)cc(-c3ccc(N4CCOCC4)cc3)c12 | 431.55
* COCC1CCN(c2cc(C(=O)NS(=O)(=O)C3CC3)nc3c2c(C2CCC2)nn3-c2ccccc2)CC1 | 595.1
* CC(=O)N1CCC(F)(COc2cc(C(=O)NS(C)(=O)=O)nc3c2c(C2CCC2)nn3-c2ccccc2)CC1 | 300

###

- Subject Of Test: ΔF508-CFTR (Homo sapiens, UniProt P13569, DEL508-508)
- Construct: host or cells: CFBE41o-, doxycycline-inducible
- Procedure Details: CFTR cell surface levels using HRP-tagged ΔF508-CFTR expressing CFBE cells, intrinsic corrector capacity
- Assay type: cell-based
- Experimental Context: HRP-tagged ΔF508-CFTR expressing CFBE41o- cells; compound alone (intrinsic corrector capacity); 20 hours at 33° C.; read-out: EC50
Measured EC50, listed per entry for reference.
Recorded Endpoint: EC50

* O=C(NS(=O)(=O)C1CC1)c1cc(N2CCC(N3CCOCC3)CC2)c2c(C3CCC3)nn(-c3ccccc3)c2n1 | 344 nM
* O=C(NS(=O)(=O)N1CCC(N2CCCC2)CC1)c1cc(OCC2CCOCC2)c2c(C3CCC3)nn(-c3ccccc3)c2n1 | 73.5 nM
* COCCS(=O)(=O)NC(=O)c1cc(-c2ccc(N3CCC(C#N)CC3)nc2)c2c(n1)n(-c1ccccc1)nc2[C@H]1C[C@H](C)C1 | 779 nM

###

- Subject Of Test: ΔF508-CFTR (Homo sapiens, UniProt P13569, DEL508-508)
- Construct: host or cells: CFBE41o-, doxycycline-inducible
- Procedure Details: CFTR cell surface levels using HRP-tagged ΔF508-CFTR expressing CFBE cells, in the presence of a co-corrector
- Assay type: cell-based
- Experimental Context: HRP-tagged ΔF508-CFTR CFBE cells, in the presence of 3 μM co-corrector
Recorded Endpoint: % Activation (%)

- CC(C)Oc1nn(C2CCCCC2)c2nc(C(=O)NS(C)(=O)=O)cc(-c3ccc(C(=O)N4CC5CNCC5C4)cc3)c12 (stereo not drawn) [Compound 631]: 352.63
- CCS(=O)(=O)NC(=O)c1cc(-c2ccc(N(C)C)nc2)c2c(C3CC3)nn(C3CCCCC3)c2n1 [Compound 92]: 367.67
- COC(=O)N1CCC(COc2cc(C(=O)NS(C)(=O)=O)nc3c2c(C2CCC2)nn3-c2ccccc2)CC1 [Compound 297]: 423.43
- CONS(=O)(=O)NC(=O)c1cc(N2CCC(N3CCOCC3)CC2)c2c(C3CCC3)nn(-c3ccc(F)cc3)c2n1 [Compound 592]: 518.55
- CC(C)c1nn(-c2ccc(F)cc2)c2nc(C(=O)NS(C)(=O)=O)cc(N3CCC(C(C)(C)O)CC3)c12 [Compound 304]: 507
- COCC1CCN(Cc2cc(C(=O)NS(=O)(=O)N(C)C)nc3c2c(C2CCC2)nn3-c2ccc(F)cc2)CC1 [Compound 521]: 217.3
- CN(C)S(=O)(=O)NC(=O)c1cc(C2CCN(C3CCOCC3)CC2)c2c(C3CCC3)nn(-c3ccc(F)cc3)c2n1 [Compound 612]: 320.8
- COC(C)(C1CCN(c2cc(C(=O)NS(C)(=O)=O)nc3c2c(C2CCC2)nn3-c2ccccc2)CC1)C(F)(F)F (stereo not drawn) [Compound 242]: 459.15
- COCC1CN(C2CCN(c3cc(C(=O)NS(=O)(=O)N(C)C)nc4c3c(C3CCC3)nn4-c3ccc(F)cc3)CC2)CCO1 (stereo not drawn) [Compound 379]: 440.55

###

- Subject Of Test: ΔF508-CFTR (Homo sapiens, UniProt P13569, DEL508-508)
- Construct: host or cells: CFBE41o-, doxycycline-inducible
- Procedure Details: CFTR cell surface levels using HRP-tagged ΔF508-CFTR expressing CFBE cells, intrinsic corrector capacity
- Assay type: cell-based
- Experimental Context: HRP-tagged ΔF508-CFTR expressing CFBE41o- cells; compound alone (intrinsic corrector capacity); 20 hours at 33° C.; read-out: EC50
pEC50: −log10 of the molar value.
Would you mind labelling by pEC50? At or over 6 is class 1, under is class 0.

* CC(=O)N1CCC(COc2cc(C(=O)NS(C)(=O)=O)nc3c2c(C2CCC2)nn3-c2ccccc2)CC1 | class 1
* CS(=O)(=O)NC(=O)c1cc(N2CCS(=O)(=O)CC2)c2c(C3CCC3)nn(-c3ccccc3)c2n1 | class 0
* COC1CCN(c2cc(C(=O)NS(=O)(=O)CCC(F)(F)F)nc3c2c(C2CCC2)nn3-c2ccccc2)CC1 | class 1
* CC(C)c1nn(C2CCCCC2)c2nc(C(=O)NS(C)(=O)=O)cc(-c3cnc(N4CCC(C#N)CC4)nc3)c12 | class 1
* CC(=O)N1CCN(C2CCN(c3cc(C(=O)NS(=O)(=O)N(C)C)nc4c3c(C3CCC3)nn4-c3ccc(F)cc3)CC2)CC1 | class 1

###

- Subject Of Test: ΔF508-CFTR (Homo sapiens, UniProt P13569, DEL508-508)
- Construct: host or cells: CFBE41o-, doxycycline-inducible
- Procedure Details: CFTR cell surface levels using HRP-tagged ΔF508-CFTR expressing CFBE cells, intrinsic corrector capacity
- Format: cell-based
- Experimental Context: HRP-tagged ΔF508-CFTR expressing CFBE41o- cells; compound alone (intrinsic corrector capacity); 20 hours at 33° C.; read-out: EC50
- From the text: Measuring CFTR Cell Surface Levels Using HRP-Tagged ΔF508-CFTR Expressing CFBE Cells The HRP-tagged ΔF508-CFTR cell assay measures the expression of CFTR-ΔF508 at the plasma membrane. […] When HRP-tagged ΔF508-CFTR is present at the plasma membrane, the HRP enzyme activity can be measured. The amount of CFTR-ΔF508 that can be rescued to the plasma membrane is correlated with the amount of functional enzyme that can be measured. […]
pEC50: −log10 of the molar value.
Recorded Endpoint: pEC50

* COC1CCN(c2cc(C(=O)NS(C)(=O)=O)nc3c2c(C(C)C)nn3-c2cccc(N(C)C)c2)CC1 | 6.34
* COCCS(=O)(=O)NC(=O)c1cc(-c2ccc(N3CCOCC3)cc2)c2c(C)nn(C3CC3)c2n1 | 5.49
* Cc1cccc(-n2nc(C(C)C)c3c(N4CCC5(CCOCC5)C4)cc(C(=O)NS(C)(=O)=O)nc32)c1 | 6.10
* CS(=O)(=O)NC(=O)c1cc(N2CCC(CCN3CCOCC3)CC2)c2c(C3CCC3)nn(-c3ccc(F)cc3)c2n1 | 6.96
* CC(C)Oc1nn(C2CCCCC2)c2nc(C(=O)NS(C)(=O)=O)cc(-c3ccc(C(=O)N4CC5CN(C)CC5C4)cc3)c12 (centres unmarked) | 5.60
